Below are IC50 values measured for Translocator protein (Rattus norvegicus).
property-label: IC50 (nM)

# structure-string, property-label, modifier, numeric-readout
measured = [
    ("CCN(Cc1ccccc1)Cc1ccccc1C(=O)N(CC)CC", "IC50", "=", 8210),
    ("CCN(Cc1ccccc1)Cc1ccccc1C(=O)N(C)c1ccccc1", "IC50", ">", 10000),
    ("CCN(Cc1ccccc1)Cc1c(C(=O)N(CC)CC)nc2ccccc2c1-c1ccccc1", "IC50", "=", 4.1),
    ("CCN(Cc1ccccc1)Cc1cc(-c2ccccc2)c2ccccc2n1", "IC50", "=", 3400),
    ("CCOC(=O)c1c(CN(CC)Cc2ccccc2)nc2ccccc2c1-c1ccccc1", "IC50", "=", 700),
    ("O=C1c2c(nc3ccccc3c2-c2ccccc2)CN1Cc1ccc(Cl)cc1", "IC50", "=", 210),
    ("CCN(CC)C(=O)c1cc(-c2ccccc2)c2ccccc2n1", "IC50", "=", 27),
    ("CCN(Cc1ccccc1)Cc1nc2ccccc2c(-c2ccccc2)c1C(=O)NCc1ccccc1", "IC50", "=", 2900),
]
